Numbers sourced from patent US20230056252A1.

# tested-target: T1, biotinylated CD3 epsilon:delta heterodimer protein (Amsbio AMS.CDD-H52WO) (Homo sapiens (Human), UniProt P07766 23-126; P04234 22-105)
# T1 construct: also called CD3 heterodimer
# experimental-protocol: BLI (Octet), CD3 on SA sensor, Fab analyte;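 further: fab analyte at several concentrations up to 300 nM, association 100 s then 300 s dissociation in buffer, biosensors blocked with biocytin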
Measured koff, listed per entry for reference.
Your answer is read as s⁻¹, so omit the unit and give the number.

binder	koff [s⁻¹]
huSP34.3.8 Fab-HF (Fab, V domains shown, also called HC3+LC8) VH: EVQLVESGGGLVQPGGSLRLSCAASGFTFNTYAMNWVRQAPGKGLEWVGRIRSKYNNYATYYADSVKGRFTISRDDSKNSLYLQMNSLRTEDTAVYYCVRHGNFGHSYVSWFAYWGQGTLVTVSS VL: QAVVTQEPSLTVSPGGTVTLTCGSSTGAVTTGHYANWVQQKPGQAPRGLIGGTNKRAPGVPARFSGSLLGGKAALTISGAQPEDEAEYYCALWYSNRWVFGGGTKLTVL	0.00024

Recorded koff of huSP34.34.17 Fab-HF (Fab, V domains shown, also called HC34+LC17) VH: EVQLVESGGGLVQPGGSLRLSCAASGFTFNTYAMNWVRQAPGKGLEWVGRIRSKYNNYATYYAASVKGRFTISRDDSKNSLYLQMNSLKTEDTAMYYCVRHGNFGHSYVSWFAYWGQGTLVTVSS VL: QAVVTQPPSLTVSPGGTVTLTCGSSTGAVTTGHYANWVQQKPGQAPRGLIGGTNKRAPWTPARFSGSLSGGKAALTISGAQPEDEAEYYCALWYSARWVFGGGTKLTVL , please.
0.00816

Again, but for huSP34.36.10 Fab-HF (Fab, V domains shown, also called HC36+LC10) VH: EVQLVESGGGLVQPGGSLRLSCAASGFTFNDYAMNWVRQAPGKGLEWVGRIRSKYNNYATYYAASVKGRFTISRDDSKNSLYLQMNSLKTEDTAMYYCVRHGNFGHSYVSWFAYWGQGTLVTVSS VL: QAVVTQPPSLTVSPGGTVTLTCGSSTGAVTTGHYANWVQQKPGQAPRGLIGGTNKRAPGVPARFSGSLSGGKAALTISGAQPEDEAEYYCALWYSNRWVFGGGTKLTVL
0.00929

Another binder: huSP34.34.11 Fab-HF (Fab, V domains shown, also called HC34+LC11) VH: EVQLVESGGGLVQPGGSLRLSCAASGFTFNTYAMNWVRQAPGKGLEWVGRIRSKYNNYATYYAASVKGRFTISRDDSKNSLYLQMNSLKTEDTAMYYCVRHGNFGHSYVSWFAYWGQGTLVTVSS VL: QAVVTQEPSLTVSPGGTVTLTCGSSTGAVTTGHYANWVQQKPGQAPRGLIGGTNKRAPGVPARFSGSLLGGKAALTLSGAQPEDEAEYYCALWYSNLWVFGGGTKLTVL
0.00118

Then huSP34.34.15 Fab-HF (Fab, V domains shown, also called HC34+LC15) VH: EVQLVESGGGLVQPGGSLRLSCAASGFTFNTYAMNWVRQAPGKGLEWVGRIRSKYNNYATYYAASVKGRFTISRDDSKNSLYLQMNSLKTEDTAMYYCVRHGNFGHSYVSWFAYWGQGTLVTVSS VL: QAVVTQPPSLTVSPGGTVTLTCGSSTGAVTTGHYANWVQQKPGQAPRGLIGGTNKRAPGVPARFSGSLSGGKAALTISGAQPEDEAEYYCALWYSARWVFGGGTKLTVL ?
0.0015

Another binder: huSP34.34.18 Fab-H (Fab, V domains shown, also called HC34+LC18) VH: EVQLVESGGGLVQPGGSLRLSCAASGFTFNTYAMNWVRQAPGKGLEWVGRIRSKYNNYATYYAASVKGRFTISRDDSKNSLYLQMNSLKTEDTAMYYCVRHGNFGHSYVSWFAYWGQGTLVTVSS VL: QAVVTQPPSLTVSPGGTVTLTCGSSTGAVTTGHYANWVQQKPGQAPRGLIGGTSNRAPWTPARFSGSLSGGKAALTISGAQPEDEAEYYCALWYSARWVFGGGTKLTVL
0.0224

Next entry: huSP34.3.19 Fab-HF (Fab, V domains shown, also called HC3+LC19) VH: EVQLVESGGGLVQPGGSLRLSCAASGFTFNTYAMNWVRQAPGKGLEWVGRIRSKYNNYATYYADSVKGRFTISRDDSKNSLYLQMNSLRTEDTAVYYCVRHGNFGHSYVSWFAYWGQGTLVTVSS VL: QAVVTQEPSLTVSPGGTVTLTCGSSTGAVTTGHYANWVQQKPGQAPRGLIGGTNKRAPGVPARFSGSLLGGKAALTISGAQPEDEAEYYCALWYSARWVFGGGTKLTVL
0.00164
